Taken from the NIST ThermoML archive (doi:10.1016/j.fluid.2007.08.001).

mass density by entry:
Conditions: 303.15 K; 95.3 kPa; Liquid; Pycnometric method
Unit kg/m3 implied. Number only.

O=[N+]([O-])c1ccccc1 yielded mass density of 1193.4

Brc1ccccc1 yielded mass density of 1481.48

C[S+](C)[O-] [dimethyl sulfoxide] yielded mass density of 1092.4

---

Conditions: 303.15 K; 95.3 kPa; Liquid; Pycnometric method
mass density by entry:
Unit kg/m3 implied. Number only.

Some solved cases for reference:
Cc1ccccc1 yielded mass density of 857.66

Clc1ccccc1 yielded mass density of 1095.52

Here is another molecule to look at.
CCc1ccccc1 yielded mass density of 858.2
